test.description: Plasma concentration in Sprague-Dawley rat at 2 mg/kg, po administered as single dose measured after 8 hrs by LC-MS/MS analysis
Format: ADME, organism-based
measurement.kind: concentration at 8 h (ng/mL)
Write it as a number; the unit ng/mL goes unstated.

Req: What value of measured concentration at 8 h is listed for Fc1ccc(N2CCN(CCCc3c[nH]c4ccc(F)cc34)CC2)c(-c2ccccc2)c1 ?
Resp: 47.4

====

test.description: Clearance in rat liver microsomes at 1 uM in presence of NADPH by LC-MS/MS analysis
Format: ADME, microsome
condition.details: read-out: CLH
// NB: equality with 50 µL/min/mg counts as no (0); only microsomal CLint at 1 µM strictly below is yes (1)

Reference set, count: 5
Fc1ccc(N2CCN(CCCc3c[nH]c4ccc(F)cc34)CC2)c(-c2ccccc2)c1: yes (1)
Fc1cccc(-c2cc(F)ccc2N2CCN(CCCc3c[nH]c4ccc(F)cc34)CC2)c1: yes (1)
Fc1ccc(-c2ccccc2N2CCN(CCc3c[nH]c4ccc(F)cc34)CC2)cc1: no (0)
Fc1ccc2[nH]cc(CCN3CCN(c4ccccc4-c4ccccc4F)CC3)c2c1: no (0)
Fc1ccc2[nH]cc(CCN3CCN(c4ccccc4-c4ccccc4)CC3)c2c1: no (0)

Req: Identify whether the compound Fc1cccc(-c2ccc(F)cc2N2CCN(CCCc3c[nH]c4ccc(F)cc34)CC2)c1 records microsomal CLint at 1 µM below 50 µL/min/mg.
Resp: yes (1)

Req: Identify whether the compound Fc1cccc(-c2ccccc2N2CCN(CCc3c[nH]c4ccc(F)cc34)CC2)c1 records microsomal CLint at 1 µM below 50 µL/min/mg.
Resp: no (0)

====

test.description: MRT (0 to t) in Sprague-Dawley rat at 0.5 mg/kg, iv administered as single dose by LC-MS/MS analysis
Format: ADME, organism-based
condition.details: in vivo
measurement.kind: MRT last (h)
Write it as a number; the unit h goes unstated.

Req: What value of measured MRT last is listed for Fc1ccc(N2CCN(CCCc3c[nH]c4ccc(F)cc34)CC2)c(-c2ccccc2)c1 ?
Resp: 1.9

====

Below: a set of entries, each annotated with reported half-life at 1 µM.
test.description: in vitro
condition.details: rat, liver microsomes
Description: Half life in rat liver microsomes at 1 uM in presence of NADPH by LC-MS/MS analysis
Write it as a number; the unit min goes unstated.

Here is how some molecules turned out for half-life at 1 µM.
Fc1cccc(-c2cc(F)ccc2N2CCN(CCCc3c[nH]c4ccc(F)cc34)CC2)c1: 56.8
Fc1ccc(N2CCN(CCCc3c[nH]c4ccc(F)cc34)CC2)c(-c2ccccc2)c1: 46.5
Fc1cccc(-c2ccccc2N2CCN(CCCc3c[nH]c4ccc(F)cc34)CC2)c1: 27.7
Fc1ccc(-c2ccccc2N2CCN(CCc3c[nH]c4ccc(F)cc34)CC2)cc1: 9.6
Fc1cccc(-c2c(F)cccc2N2CCN(CCCc3c[nH]c4ccc(F)cc34)CC2)c1: 26.9

Req: What value of measured half-life at 1 µM is listed for Fc1cccc(-c2ccc(F)cc2N2CCN(CCCc3c[nH]c4ccc(F)cc34)CC2)c1 ?
Resp: 28.8

Req: What value of measured half-life at 1 µM is listed for Fc1ccc2[nH]cc(CCN3CCN(c4ccccc4-c4ccccc4F)CC3)c2c1 ?
Resp: 4

Req: What value of measured half-life at 1 µM is listed for Fc1ccc2[nH]cc(CCN3CCN(c4ccccc4-c4ccccc4)CC3)c2c1 ?
Resp: 6.1

Req: What value of measured half-life at 1 µM is listed for Fc1cccc(-c2ccccc2N2CCN(CCc3c[nH]c4ccc(F)cc34)CC2)c1 ?
Resp: 9

meta.source: ChEMBL document CHEMBL4251632
